Molecular target: GLP-1 receptor (GLP-1R) (human, UniProt P43220 24-463)
Test: cell-based or functional assay
Starred links: 1 amine or outer side, 2 acyl side, 3 side chain; linkers in the order of their positions; H or OH if unused. Non-standard residues stand in square brackets, D forms with d. Groups on a side chain read outwards from the residue. Primed or numbered codes have the meaning given here. No end group written: not given here. *: point of attachment. Dodecanoyl(12-OPh(4-COOH)) = O=C(O)c1ccc(OCCCCCCCCCCCC(=O)*)cc1; γGlu = O=C(O)[C@H](CCC(=O)[*:2])N[*:1]; Stearoyl = CCCCCCCCCCCCCCCCCC(=O)*; Palmitoyl = CCCCCCCCCCCCCCCC(=O)*; αMeF = C[C@](N)(Cc1ccccc1)C(=O)O; αMeK = C[C@](N)(CCCCN)C(=O)O; Lauroyl = CCCCCCCCCCCC(=O)*; αMeS = C[C@](N)(CO)C(=O)O; PEG2′ = not defined here; Aib = CC(C)(N)C(=O)O
Classes (cAMP Primary assay EC50 GLP-1R n1): lo: < 0.006 nM; mid: ≥ 0.006 nM and < 0.6 nM; hi: ≥ 0.6 nM

binder	cat
HXEGSFTSDVSKFLEGEAAKEFIAFVVKGG (Aib 2; α-MeF 6, 13, 22, 25; α-MeS 11; α-MeK 20, 28; K(ε-γE-Palmitoyl) 12; C-terminal amide) [SEQ ID NO 88]	lo
H[Aib]EGS[αMeF]TSDV[αMeS]S[αMeF]LEGEAAK([PEG2′-Dodecanoyl(12-OPh(4-COOH))])E[αMeF]IA[αMeF]VV[αMeK]GG-NH2 [SEQ ID NO 143]	mid
H[Aib]EGS[αMeF]TSDV[αMeS]S[αMeF]LEGEAA[αMeK]E[αMeF]IA[αMeF]VV[αMeK]GK([PEG2′-PEG2′-γGlu-Stearoyl])-NH2 [SEQ ID NO 99]	mid
H[Aib]EGS[αMeF]TSDV[αMeS]S[αMeF]LEGEAA[αMeK]K([PEG2′-PEG2′-γGlu-Stearoyl])[αMeF]IA[αMeF]VV[αMeK]GG-NH2 [SEQ ID NO 108]	lo
H[Aib]EK([PEG2′-PEG2′-γGlu-Stearoyl])S[αMeF]TSDV[αMeS]S[αMeF]LEGEAA[αMeK]E[αMeF]IA[αMeF]VV[αMeK]GG-NH2 [SEQ ID NO 125]	hi
H[Aib]EGS[αMeF]TSDV[αMeS]S[αMeF]LEGEAAK([PEG2′-PEG2′-PEG2′-Lauroyl])E[αMeF]IA[αMeF]VV[αMeK]GG-NH2 [SEQ ID NO 136]	lo
HK([γGlu-Palmitoyl])EGS[αMeF]TSDV[αMeS]S[αMeF]LEGEAA[αMeK]E[αMeF]IA[αMeF]VV[αMeK]GG-NH2 [SEQ ID NO 98]	hi
H[Aib]EGS[αMeF]TSDVK([PEG2′-PEG2′-γGlu-Stearoyl])S[αMeF]LEGEAA[αMeK]E[αMeF]IA[αMeF]VV[αMeK]GG-NH2 [SEQ ID NO 118]	hi
H[Aib]EGSK([PEG2′-PEG2′-γGlu-Stearoyl])TSDV[αMeS]S[αMeF]LEGEAA[αMeK]E[αMeF]IA[αMeF]VV[αMeK]GG-NH2 [SEQ ID NO 123]	hi
H[Aib]EGS[αMeF]TSDV[αMeS]S[αMeF]LEGEAA[αMeK]E[αMeF]IA[αMeF]VVK([PEG2′-PEG2′-γGlu-Stearoyl])GG-NH2 [SEQ ID NO 101]	mid
H[Aib]EGS[αMeF]TSDV[αMeS]S[αMeF]LEGEAAK([PEG2′-Stearoyl])E[αMeF]IA[αMeF]VV[αMeK]GG-NH2 [SEQ ID NO 152]	mid
H[Aib]EGS[αMeF]TSDV[αMeS]S[αMeF]LEGEAK([PEG2′-PEG2′-γGlu-Stearoyl])[αMeK]E[αMeF]IA[αMeF]VV[αMeK]GG-NH2 [SEQ ID NO 110]	mid
H[Aib]EGS[αMeF]TSDV[αMeS]S[αMeF]LK([PEG2′-PEG2′-γGlu-Stearoyl])GEAA[αMeK]E[αMeF]IA[αMeF]VV[αMeK]GG-NH2 [SEQ ID NO 114]	mid
H[Aib]EGK([PEG2′-PEG2′-γGlu-Stearoyl])[αMeF]TSDV[αMeS]S[αMeF]LEGEAA[αMeK]E[αMeF]IA[αMeF]VV[αMeK]GG-NH2 [SEQ ID NO 124]	hi

Source: patent US20200079833A1
